Provenance of the data: patent US20240270821A1

Recorded Relative cAMP EC50 by entry
- SYSTEM_TESTED: hGLP-1R (Homo sapiens, UniProt P43220)
- Sequence (P43220 24-463): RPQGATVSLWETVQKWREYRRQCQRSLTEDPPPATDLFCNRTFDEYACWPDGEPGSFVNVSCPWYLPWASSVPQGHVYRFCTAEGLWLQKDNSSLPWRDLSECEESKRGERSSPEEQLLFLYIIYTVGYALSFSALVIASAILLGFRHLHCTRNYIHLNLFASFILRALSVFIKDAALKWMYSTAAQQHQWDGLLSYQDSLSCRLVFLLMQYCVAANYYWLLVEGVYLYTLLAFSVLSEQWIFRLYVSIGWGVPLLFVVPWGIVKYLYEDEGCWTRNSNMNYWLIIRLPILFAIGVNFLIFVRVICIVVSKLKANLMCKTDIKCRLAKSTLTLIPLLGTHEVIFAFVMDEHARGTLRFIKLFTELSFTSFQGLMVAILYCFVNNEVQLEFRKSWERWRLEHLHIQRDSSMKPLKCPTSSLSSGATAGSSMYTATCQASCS
- ASSAY_INFO: cell-based or functional assay
Note: state the figure and append the unit.

Sample records with Relative cAMP EC50:
YXQGTXTSDXSILLDKKAQXAFIEXLEEGGPSSGAPPPSGTGE (synthetic construct; SITE 2: note = 2-Aminoisobutyric Acid; SITE 6: note = alpha-methyl-2-fluoro-L-phenylalanine; SITE 10: note = 3-(4-Pyridyl)-L-alanine; SITE 17: note = Lysine is chemically modified through conjugation of the epsilon-amino group of the Lysine side chain with (gamma-Glu)2-CO-(CH2)1) [Example 664 (SEQ ID NO: 670)]: 0.356 nM
YXQGTFTSDXSQXLDKKAQXAFIEYLIAGGPSSGAPPPEGS (synthetic construct; SITE 2: note = 2-Aminoisobutyric Acid; SITE 10: note = 3-(4-Pyridyl)-L-alanine; SITE 13: note = alpha-methyl-leucine; SITE 17: note = Lysine is chemically modified through conjugation of the epsilon-amino group of the Lysine side chain with (gamma-Glu)2-CO-(CH2)16-CO2H; SITE 20:) [Example 969]: 1.21 nM
YXQGTXTSDXXIXLEXKAQXEFIEXLVEGGPSSGAPPPSGS (synthetic construct; SITE 2: note = 2-Aminoisobutyric Acid; SITE 6: note = alpha-methyl-2-fluoro-L-phenylalanine; SITE 10: note = 3-(4-Pyridyl)-L-alanine; SITE 11: note = alpha-methyl-L-serine; SITE 13: note = alpha-methyl-leucine; SITE 16: note = L-ornithine; SITE 17: note = Lysine is chemically mo) [Example 768]: 0.259 nM
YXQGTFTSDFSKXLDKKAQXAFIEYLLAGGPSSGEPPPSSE (acylated Lys, C-terminal amide, non-natural residues; synthetic construct; SITE 2: note = 2-Aminoisobutyric Acid; SITE 13: note = alpha-methyl-leucine; SITE 17: note = Lysine is chemically modified through conjugation of the epsilon-amino group of the Lysine side chain with (2-[2-(2-Amino-ethoxy)-ethoxy]-acetyl)2-(gamma-Glu)-CO-(CH2 )18-CO2H; SITE 20:) [Example 5]: 2.37 nM
YXQGTXTSDXSILLDKQAQKAFIEYLLEGGPSSGEPPPSEG (not fully specified; synthetic construct; SITE 2: note = 2-Aminoisobutyric Acid; SITE 6: note = alpha-methyl-2-fluoro-L-phenylalanine; SITE 10: note = 3-(4-Pyridyl)-L-alanine; SITE 20: note = Lysine is chemically modified through conjugation of the epsilon-amino group of the Lysine side chain with (2-[2-(2-Amino-ethoxy))) [Example 347]: 0.798 nM

Bench note: what Relative cAMP EC50 did YXQGTFTSDXSQXLDKKAQXAFIEXLIEXGPSSGEPPPSGSEE (Aib, 4Pal, Me4Pal, αMeL; lipidated Lys; C-terminal amide; synthetic construct; SITE 2: note = 2-Aminoisobutyric Acid; SITE 10: note = 3-(4-Pyridyl)-L-alanine; SITE 13: note = alpha-methyl-leucine; SITE 17: note = Lysine is chemically modified through conjugation of the epsilon-amino group of the Lysine side chain with (gamma-Glu)2-CO-(CH2)16-CO2H; SITE 20:) [Example 1125] show?
8.26 nM

Also, YXQGTFTSDXSQXLDKKAQXAFIEYLLEAGPSSXAPPPSGT (synthetic construct; SITE 2: note = 2-Aminoisobutyric Acid; SITE 10: note = 3-(4-Pyridyl)-L-alanine; SITE 13: note = alpha-methyl-leucine; SITE 17: note = Lysine is chemically modified through conjugation of the epsilon-amino group of the Lysine side chain with (2-[2-(2-Amino-ethoxy)-ethoxy]-acetyl)) [Example 825] please.
3.4 nM

Likewise for YXQGTFTSDFSKXLDKKAQXAFIEYLLAGGPSSGAPPPGGE (acylated Lys, Aib, αMeL, C-terminal amide; synthetic construct; SITE 2: note = 2-Aminoisobutyric Acid; SITE 13: note = alpha-methyl-leucine; SITE 17: note = Lysine is chemically modified through conjugation of the epsilon-amino group of the Lysine side chain with (2-[2-(2-Amino-ethoxy)-ethoxy]-acetyl)-(gamma-Glu)-CO-(CH2) 18-CO2H; SITE 20: n) [Example 15] ?
1.77 nM
